Test system: β-hydroxybutyrate production in rat hepatocytes
experiment: Oleate-stimulated β-hydroxybutyrate production in rat hepatocytes
Assay type: cell-based
particulars: 40 min incubation, then oleate 1 mM for 20 min, mean of three experiments, read-out: IC50 of inhibition CPTI curve of β-hydroxybutyrate production in rat hepatocytes
Method: β-hydroxybutyrate production is an index of CPT activity. In fact, the production of ketone bodies, final products of mitochrondrial β-oxidation, is related to CPT activity. Mitocondrial preparations, obtained according to the method by Venerando et al. (Am. J. Physiol. 266:C455-C461, 1994), were used. Hepatocytes are incubated at 37° C. in KRB bicarbonate buffer at pH 7.4, 6 mM glucose, 1% BSA in O2/CO2 95/5 atmosphere at 2.5×10^6 cells/ml. […]
measuredEndpoint: pIC50
Scale note: pIC50 = -log10(concentration in M).

Exam item: Tell me the measured pIC50 of CCCCCCCCCOC(=O)NC(CC(=O)[O-])C[N+](C)(C)C (stereo not shown) [ST1285] , please.
Marked response: 5.72

Exam item: Query: pIC50; subject: CCCCCCCCCNC(=O)NC(CC(=O)[O-])C[N+](C)(C)C (stereo not shown) [ST1251]
Marked response: 6.30

Exam item: Please give the measured pIC50 for this molecule: CCCCCCCCCCCCCCOP(=O)([O-])O[C@H](CC(=O)O)C[N+](C)(C)C [SDZ-CPI-975, reference compound]
Marked response: 5.43

Exam item: # get_value(readout='pIC50', item= CCCCCCCCOC(=O)NC(CC(=O)O)C[N+](C)(C)C.[Cl-] (stereo not shown) [ST1253] )
Marked response: 6.05
